Test system: MB-231 cells
assayComment: Proliferation assay (Incucyte confluency), MB-231
Type: cell-based
experimentalParameters: Homo sapiens, 96 h, 4 days, read-out: IC50, inhibition of proliferation
The following compounds are listed with their measured IC50 values.
Respond numerically; units are nM and should not be typed.

INSERT INTO results (structurenotation, target, unitspec, reportedresult) VALUES
  ('CC(C)Oc1nc(NC(=O)CSCC(=O)O)c(Cl)cc1C(F)(F)F', 'MB-231 cells', 'nM', 727);

Pending compound:
## Task // lookup IC50 for CC(C)Oc1nc(NC(=O)CSCC(=O)O)c(Cl)cc1Cl
## Result 603
